Below is a list of entries, each paired with its recorded cAMP assay-3 IC50 value.
target: full-length human GCGR on CHO cells (human, UniProt P47871 26-477); assay: cell-based or functional assay
Sequence (P47871 26-477): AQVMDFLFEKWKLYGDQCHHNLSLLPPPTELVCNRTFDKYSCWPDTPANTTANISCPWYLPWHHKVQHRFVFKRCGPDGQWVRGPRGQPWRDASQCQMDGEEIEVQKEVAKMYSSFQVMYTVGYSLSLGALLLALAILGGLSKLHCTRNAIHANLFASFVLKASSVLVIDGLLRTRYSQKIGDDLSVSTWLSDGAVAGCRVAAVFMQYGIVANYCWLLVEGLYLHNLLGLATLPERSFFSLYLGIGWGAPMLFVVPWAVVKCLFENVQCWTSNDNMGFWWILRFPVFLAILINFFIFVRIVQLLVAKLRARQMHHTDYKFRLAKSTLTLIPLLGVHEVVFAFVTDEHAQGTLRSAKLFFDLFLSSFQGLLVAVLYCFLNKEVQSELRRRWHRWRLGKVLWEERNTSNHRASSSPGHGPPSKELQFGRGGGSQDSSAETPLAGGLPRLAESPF

binder | cAMP assay-3 IC50
anti-GCGR antibody 14F4 (antibody, V domains shown, mouse hybridoma monoclonal antibody; also called 141F4) VH: QVQLQQSGAELVRPGTSVNMSCKATGYTFTNYWIGWVKQRPGHGLEWIGDIFPGGFYSNYNEKFKGKATLTTDTSSSTGYMQLSSLTSEDSAIYYCARIWDRGFDYWGQGTTLTVSS VL: DVLMTQSPLSLPVSLGDQASISCRSSQSIVDSYGNTYLEWYLQKPGQSPKLLIYKVSNRFSGVPDRFSGSGSGTDFTLKISRVEAEDRGLYYCFQGSHVPYTFGGGTKLEIK | 6.48 nM
anti-GCGR antibody 14E9 (antibody, V domains shown, mouse hybridoma monoclonal antibody; also called 13E9) VH: QVQLQQSGAELVRPGTSVKMSCKAAGYTFTNYWIGWVKQRPGHGLEWIGDISPGNYYTNYNAKFKDKVSLTADTSSSTAYMQLSSLTSEDSAIYYCARYDEFAYWGQGTLVTVSA VL: DVLMTQTPLSLSVSLGDQASISCRSSQSIVHSDGNTYLEWYLQKPGQSPKLLIYKVSNRFSGVPDRFSGSGSGTDFTLKISRVEAEDLGVYYCFQGSHVPWTFGGGTKLEIK | 1.32 nM
anti-GCGR antibody 13G9 (antibody, V domains shown, mouse hybridoma monoclonal antibody; also called 13G19) VH: QVQLQQSGAELVRPGTSVKISCKASGYTFTNYWLGWVKQRPGHGLEWIGDIYPGGDYNNYNGKFKGKATLTADTSSSTAYIQLSSLTSEDSAVYFCVRSDDGYSWGQGTTLTVSS VL: DVLMTQTPLSLPVSLGDQASISCRSSQSIVDSYGNTYLEWYQQKPGQSPTLLIYKVSNRFAGVPDRFSGSGSGTDFTLKISRVEAEDLGVYYCFQGSHIPWTFGGGTKVEIK | 0.99 nM
anti-GCGR antibody 6B5 (antibody, V domains shown, mouse hybridoma monoclonal antibody; also called 61B5) VH: QVQLQQSGTELVRPGTSVKISCKASGFTFTNHWLGWVKQRPGHGLEWIGDIYPGGYYINYNEKFKGKATLTADTSSSTAYMQLSSLTSEDSAVYFCARHTNYGSDYWGQGTTLTVSS VL: DVLMTQIPLSLPVSLGDQASISCRSSQSIVDSYGNTFLEWYLQKPGQSPKLLIYKVSNRLSGVPDRFSGTGAGTDFTLKISRVEAEDLGIYYCFQGSHVPWTFGGGTKLEIK | 2.07 nM

Proceed to the following item.
Record request: cAMP assay-3 IC50 value, item anti-GCGR antibody 4F8 (antibody, V domains shown, mouse hybridoma monoclonal antibody) VH: QVQLQQSGAELVRPGTSVTMSCKAAGYTFSNYWIGWVKQRPGHGLEWIGDIYPGGFYDNYNDKFKGKATLTTDTSSSTAYMQLSSLTSEDSAIYYCTRSGGLPGAGFTYWGQGTLVTVSA VL: DVLMTQTPLSLPVSLGDQASISCRSSQHIVYSDGNTYLEWYLQKPGQSPKLLIYKVSNRFSGVPDRFSGSGSGTDFTLEISRVEAEDLGVYYCFQGSHVPWTFGGGTKLEIK
3.84 nM
